Attribution: PubChem BioAssay

Measured composite z-score, listed per entry.
measurement.notes: COS7 lysate on small-molecule microarray, probe aHis, 635 nm (AID 1123);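 note: z-score combines 667nm fluorescence intensity with signal-to-noise per printed compound spot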
recorded.conditions: COS7 cell lysate, fluorescence, higher = more signal
Form: value (number only, do not type unit).

Study these solved cases before continuing.
molecule: NC(=O)[C@@]1(CCS(=O)(=O)c2ccccc2)COC(c2ccc(OCCCO)cc2)=N1
measured.number: 0.043

molecule: CCOC(=O)C[C@H]1[C@H](OC(=O)Cc2ccc3c(c2)OCO3)[C@@H](NC(=O)c2ccccc2)c2cc(OCCCO)ccc2N1C(=O)Cc1ccc(OC)cc1
measured.number: 1.04

molecule: CCCCN1CC=CC23O[C@@H]4/C=C\CCC(C)OC(=O)C4[C@H]2C(=O)N(C(C)CO)[C@@H]3C1=O (some centres not stated)
measured.number: -0.986

Bench note: what composite z-score did CC[C@H](C)C(=O)O[C@H]1CC[C@]2(C)C3=C(CCC2C1(C)C)[C@]1(C)CC[C@H]([C@H](C)CCCC(C)C)[C@@]1(C)CC3 (some centres not stated) show? 0.627

Given the entry COc1cccc(OC)c1C(=O)O[C@H]1[C@@H]2OC(=O)[C@H](Cc3cccc(Br)c3)C/C=C/C[C@@H](Cc3cccc(Br)c3)C(=O)O[C@H]2[C@@H](OC)O[C@@H]1CO , report its measured composite z-score. 1.2

Return reported composite z-score; argument: C[N+](C)(C)CCCCCCNC(=O)[C@H]1C[C@H]2C(=O)NCC(=O)N2[C@H]1c1cccc(OCCO)c1 1.05

Would you mind telling me what composite z-score value was observed for C[C@@H](OCc1ccccc1)C1NC(=O)[C@@]23C(=O)N[C@@H](Cc4ccccc4)C2[C@H](C)[C@@]2(C)O[C@H]2C3/C=C/C/C=C\CNC(=O)[C@H](Cc2ccccc2)NC1=O (some centres not stated) ? 0.332
